Cited source: patent US4707488A

Study system: DBH (Bos taurus, UniProt P15101)
Sequence (P15101 1-610): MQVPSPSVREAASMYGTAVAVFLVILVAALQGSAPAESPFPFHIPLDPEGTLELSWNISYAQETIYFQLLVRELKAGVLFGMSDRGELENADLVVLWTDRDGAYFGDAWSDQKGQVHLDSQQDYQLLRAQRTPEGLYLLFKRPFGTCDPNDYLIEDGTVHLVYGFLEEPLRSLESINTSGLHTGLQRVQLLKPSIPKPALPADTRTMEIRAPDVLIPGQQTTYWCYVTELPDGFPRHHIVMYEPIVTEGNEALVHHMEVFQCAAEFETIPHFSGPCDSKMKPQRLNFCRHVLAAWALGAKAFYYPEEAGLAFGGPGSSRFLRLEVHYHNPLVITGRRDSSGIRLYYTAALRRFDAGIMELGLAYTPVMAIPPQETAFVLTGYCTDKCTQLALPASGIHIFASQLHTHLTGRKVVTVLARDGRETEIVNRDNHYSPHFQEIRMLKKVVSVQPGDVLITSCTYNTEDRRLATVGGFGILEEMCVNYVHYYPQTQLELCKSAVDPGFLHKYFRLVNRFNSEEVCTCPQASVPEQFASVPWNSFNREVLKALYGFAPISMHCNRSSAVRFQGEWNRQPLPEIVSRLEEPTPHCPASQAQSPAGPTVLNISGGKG
Procedure details: in vitro DBH inhibition, conversion of tyramine to octopamine
Type: biochemical
Assay setup: octopamine assayed after periodate oxidation, absorbance at 330 nm; read-out: IC50 (molar concentration of compound at which DBH activity was halved)
pIC50: −log10 of the molar value.
Property label: pIC50

- Compound: "Sc1nnnn1Cc1ccccc1 [Example 6, 1-Benzyl-5-mercaptotetrazole]"
  Property label: "pIC50"
  Meas value: 4.89
- Compound: "Sc1nnnn1Cc1cc(Cl)cc(Cl)c1 [Example 2]"
  Property label: "pIC50"
  Meas value: 6.00
- Compound: "Sc1nnnn1CCCc1ccccc1 [Example 5, 1-(3-Phenylpropyl)-5-mercaptotetrazole]"
  Property label: "pIC50"
  Meas value: 5.62
- Compound: "Fc1cc(F)cc(CCCn2nnnc2S)c1 [Example 7]"
  Property label: "pIC50"
  Meas value: 6.46

---

Study system: DBH (Bos taurus)
Procedure details: in vitro DBH inhibition, conversion of tyramine to octopamine
Format: biochemical
Assay setup: octopamine assayed after periodate oxidation, absorbance at 330 nm; read-out: IC50 (molar concentration of compound at which DBH activity was halved)

- Smiles structure: "Fc1cc(F)cc(Cn2nnnc2S)c1"
  IC50: "1.5 µM"
- Smiles structure: "Oc1ccc(CCCn2nnnc2S)cc1"
  IC50: "0.79 µM"
- Smiles structure: "Sc1nnnn1Cc1c(Cl)cccc1Cl"
  IC50: "9.2 µM"
- Smiles structure: "COc1ccc(Cn2nnnc2S)cc1"
  IC50: "15 µM"
- Smiles structure: "Sc1nnnn1CCCc1cc(Cl)cc(Cl)c1"
  IC50: "0.39 µM"
- Smiles structure: "Oc1c(F)cc(CCCn2nnnc2S)cc1F"
  IC50: "0.08 µM"
